Values from patent US7112698B2

- Tested on: TCDD-induced MCF-7 cells
- test.summary: TCDD-induced MCF-7 cell line cytotoxicity assay, MTT
- Assay type: cell-based, human
- assay.conditions: Homo sapiens, MCF7, MCF-7 cells induced with 10 nM TCDD for 24 hours, 96 hours, MTT
pIC50: −log10 of the molar value.
Criterion: pIC50 meeting or surpassing 6. Met: class 1. Not met: class 0.

[
  {
    "compound": "CCCOc1ccc(/C=C/C(=O)c2ccc(OC)c(OC)c2OC)cc1 [DMU-420]",
    "subject.of.test": "TCDD-induced MCF-7 cells",
    "answer.label": "class 0"
  },
  {
    "compound": "CCOc1ccc(/C=C/C(=O)c2cc(OC)cc(OC)c2)cc1 [DMU-174]",
    "subject.of.test": "TCDD-induced MCF-7 cells",
    "answer.label": "class 1"
  },
  {
    "compound": "CCCOc1ccc(/C=C/C(=O)c2cc(OC)c(OC)c(OC)c2)cc1O [DMU-188]",
    "subject.of.test": "TCDD-induced MCF-7 cells",
    "answer.label": "class 1"
  },
  {
    "compound": "CCCOc1ccc(/C=C/C(=O)c2cc(OC)cc(OC)c2)cc1 [DMU-175]",
    "subject.of.test": "TCDD-induced MCF-7 cells",
    "answer.label": "class 1"
  },
  {
    "compound": "CCCOc1ccc(/C=C/C(=O)c2cc(OC)c(OC)c(OC)c2)cc1 [DMU-191]",
    "subject.of.test": "TCDD-induced MCF-7 cells",
    "answer.label": "class 1"
  }
]
